Where do the numbers come from? From patent US20210246200A1.

SYSTEM UNDER TEST: T1, Proleukin® (aldesleukin) (human, UniProt P60568 21-153, limits assumed)
T1 construct: Variant of human wt IL-2 with C145S (C125S on mature IL-2); also called IL-2 (Proleukin®); human IL-2 (Proleukin)
T1 sequence (P60568 other isoform, or with tags, fused parts or gaps limits assumed): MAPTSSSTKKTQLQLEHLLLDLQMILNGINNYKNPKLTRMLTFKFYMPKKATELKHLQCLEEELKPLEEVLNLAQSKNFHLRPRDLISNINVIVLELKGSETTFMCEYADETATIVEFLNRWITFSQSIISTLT
ASSAY NAME: ELISA, coated Proleukin, HEK293F supernatant 1:2

BINDER	ELISA value (Normal ELISA), luminescence signal
Antibody No: 32 (antibody, human IgG1, kappa, N297A, V domains shown, VK M33L; HEK293F supernatant) VH: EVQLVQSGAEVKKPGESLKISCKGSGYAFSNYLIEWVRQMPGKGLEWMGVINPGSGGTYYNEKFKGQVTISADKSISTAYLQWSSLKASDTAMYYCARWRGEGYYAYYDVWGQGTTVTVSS VL: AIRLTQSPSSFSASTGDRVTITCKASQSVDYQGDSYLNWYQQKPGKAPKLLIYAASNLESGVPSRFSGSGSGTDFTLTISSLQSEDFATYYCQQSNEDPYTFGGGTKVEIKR	7190
Antibody No: 29 (antibody, human IgG1, kappa, N297A, V domains shown, VH N58Y + T30S; VK A50T; HEK293F supernatant) VH: EVQLVQSGAEVKKPGESLKISCKGSGYAFSNYLIEWVRQMPGKGLEWMGVINPGSGGTYYNEKFKGQVTISADKSISTAYLQWSSLKASDTAMYYCARWRGEGYYAYFDVWGQGTTVTVSS VL: AIRLTQSPSSFSASTGDRVTITCKASQSVDYQGDSYMNWYQQKPGKAPKLLIYTASNLESGVPSRFSGSGSGTDFTLTISSLQSEDFATYYCQQSNEDPYTFGGGTKVEIKR	6950
Antibody No: 33 (antibody, human IgG1, kappa, N297A, V domains shown, VK A50S; HEK293F supernatant) VH: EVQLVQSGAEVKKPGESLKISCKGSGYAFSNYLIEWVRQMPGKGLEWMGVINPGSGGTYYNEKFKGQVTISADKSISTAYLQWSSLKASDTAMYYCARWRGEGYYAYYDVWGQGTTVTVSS VL: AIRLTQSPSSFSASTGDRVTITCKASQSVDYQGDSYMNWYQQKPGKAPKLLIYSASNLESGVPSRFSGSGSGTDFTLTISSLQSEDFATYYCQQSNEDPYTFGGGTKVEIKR	3990
